# Condition Notes: 308.15 K; 65000 kPa; Liquid; Vibrating tube method
Readout Kind: mass density (kg/m3)

CCCC[n+]1cccc(C)c1.N#C[N-]C#N [1-butyl-3-methylpyridinium dicyanamide] : 1066.44
CCCCCCCC[n+]1cccc(C)c1.F[B-](F)(F)F [N-octyl-3-methylpyridinium tetrafluoroborate] : 1118.6
CCCC[n+]1ccccc1.O=S(=O)([O-])C(F)(F)F [1-butylpyridinium trifluoromethanesulfonate] : 1340.54
CCC[n+]1ccccc1Oc1ccc(Cl)c[n+]1CCOS(=O)(=O)[O-].F[B-](F)(F)F : 1271.84
CCCC[n+]1ccccc1.F[B-](F)(F)F [1-butylpyridinium tetrafluoroborate] : 1234.06

* * *

# Condition Notes: 313.15 K; 30000 kPa; Liquid; Vibrating tube method
Readout Kind: mass density (kg/m3)

CCCC[n+]1ccccc1.O=S(=O)([O-])C(F)(F)F [1-butylpyridinium trifluoromethanesulfonate] : 1320.63
CCCC[n+]1ccccc1.F[B-](F)(F)F [1-butylpyridinium tetrafluoroborate] : 1217.47
CCC[n+]1ccccc1Oc1ccc(Cl)c[n+]1CCOS(=O)(=O)[O-].F[B-](F)(F)F : 1255.5
CCCC[n+]1cccc(C)c1.N#C[N-]C#N [1-butyl-3-methylpyridinium dicyanamide] : 1051.8
CCCCCCCC[n+]1cccc(C)c1.F[B-](F)(F)F [N-octyl-3-methylpyridinium tetrafluoroborate] : 1100.84

* * *

# Condition Notes: 328.15 K; 60000 kPa; Liquid; Vibrating tube method
Readout Kind: mass density (kg/m3)

CCCC[n+]1ccccc1.O=S(=O)([O-])C(F)(F)F [1-butylpyridinium trifluoromethanesulfonate] : 1324.3
CCC[n+]1ccccc1Oc1ccc(Cl)c[n+]1CCOS(=O)(=O)[O-].F[B-](F)(F)F : 1256.98
CCCC[n+]1ccccc1.F[B-](F)(F)F [1-butylpyridinium tetrafluoroborate] : 1219.5
CCCCCCCC[n+]1cccc(C)c1.F[B-](F)(F)F [N-octyl-3-methylpyridinium tetrafluoroborate] : 1104.75
CCCC[n+]1cccc(C)c1.N#C[N-]C#N [1-butyl-3-methylpyridinium dicyanamide] : 1053.85

* * *

# Condition Notes: 293.15 K; 50000 kPa; Liquid; Vibrating tube method
Readout Kind: mass density (kg/m3)

CCCCCCCC[n+]1cccc(C)c1.F[B-](F)(F)F [N-octyl-3-methylpyridinium tetrafluoroborate] : 1121.88
CCC[n+]1ccccc1Oc1ccc(Cl)c[n+]1CCOS(=O)(=O)[O-].F[B-](F)(F)F : 1276.8
CCCC[n+]1cccc(C)c1.N#C[N-]C#N [1-butyl-3-methylpyridinium dicyanamide] : 1070.15
CCCC[n+]1ccccc1.F[B-](F)(F)F [1-butylpyridinium tetrafluoroborate] : 1238.41

* * *

# Condition Notes: 288.15 K; 10000 kPa; Liquid; Vibrating tube method
Readout Kind: mass density (kg/m3)

CCCC[n+]1ccccc1.F[B-](F)(F)F [1-butylpyridinium tetrafluoroborate] : 1225.95
CCCC[n+]1cccc(C)c1.N#C[N-]C#N [1-butyl-3-methylpyridinium dicyanamide] : 1059.47
CCCCCCCC[n+]1cccc(C)c1.F[B-](F)(F)F [N-octyl-3-methylpyridinium tetrafluoroborate] : 1107.61
CCC[n+]1ccccc1Oc1ccc(Cl)c[n+]1CCOS(=O)(=O)[O-].F[B-](F)(F)F : 1265.09

* * *

# Condition Notes: 318.15 K; 10000 kPa; Liquid; Vibrating tube method
Readout Kind: mass density (kg/m3)

CCCC[n+]1cccc(C)c1.N#C[N-]C#N [1-butyl-3-methylpyridinium dicyanamide] : 1041.17
CCCC[n+]1ccccc1.F[B-](F)(F)F [1-butylpyridinium tetrafluoroborate] : 1205.15
CCCC[n+]1ccccc1.O=S(=O)([O-])C(F)(F)F [1-butylpyridinium trifluoromethanesulfonate] : 1305.66
CCC[n+]1ccccc1Oc1ccc(Cl)c[n+]1CCOS(=O)(=O)[O-].F[B-](F)(F)F : 1243.39
CCCCCCCC[n+]1cccc(C)c1.F[B-](F)(F)F [N-octyl-3-methylpyridinium tetrafluoroborate] : 1087.86
